experiment: S. cerevisiae growth inhibition in permissive medium (OD615), pilot counter-assay for S. cerevisiae lifespan shortening project, permissive growth control (AID 705)
cond: OD615, 24 h, at 10 µM, stronger effect = higher value
growth inhibition: recorded values
Provide the reading as a plain figure in %.

Recorded results for 2 compounds are shown here.
- compound: "CCN(CC)C(=O)c1ccc(CS(=O)(=O)c2ccc(OC)cc2)o1"
  endpoint-name: "growth inhibition"
  numeric-value: -6.54
- compound: "Cc1ccc(C)c2[nH]c(=O)c(CCNC(=O)c3cc4ccccc4o3)cc12"
  endpoint-name: "growth inhibition"
  numeric-value: -2.5

Pending compound:
I have this compound here, O=C(Cn1cc2c(n1)CCCC2)Nc1ccccc1Br , and I need its recorded growth inhibition.
-13

====

experiment: HUVEC growth inhibition – cell-based, human, primary screen (AID 575);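 note: 100% = median of untreated cell wells with 0.1% DMSO on each plate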
cond: HUVEC proliferation, CellTiter-Glo luminescence, 72 h; at 10 µM; stronger effect = lower value
# key: entry, value: viability
Please state the figure in %; there is no need to write the unit.

Before answering, review these 5 worked examples.
- compound: "CC1=C(C)CC2C(=O)N(c3cccc4ccccc34)C(=O)C2C1 (stereo unspecified)"
  viability, %: 80.1
- compound: "CCOC(=O)c1cc2c(=O)n3ccccc3nc2n(CC2CCCO2)c1=NC(C)=O (stereo unspecified)"
  viability, %: 102
- compound: "COc1ccccc1-c1cc2nc(C)c(CCC(=O)NCc3ccco3)c(C)n2n1"
  viability, %: 88
- compound: "C=CCn1c(SCc2cccc(C#N)c2)nnc1-c1ccccc1O"
  viability, %: 85.9
- compound: "c1ccc(Cn2nnc3c(N4CCCCCC4)ncnc32)cc1"
  viability, %: 57.5

Item O=C(C(Cc1ccccc1)n1cccc1)N1CCCCCC1 (stereo unspecified) has what recorded viability?
87.6

Item under review: Cc1ccc(-c2cc(C(=O)Nc3cc(C)on3)c3ccccc3n2)c(C)c1 . Reported viability?
96

====

experiment: MRP1 drug-resistance reversers in H69AR cells – cell-based, doxorubicin co-treatment, pilot screen (AID 601)
cond: H69AR cells + 2 uM doxorubicin, CellTiter-Glo, 72 h; at 10 µM; stronger effect = higher value
Recorded differential viability (reversal) by entry
Give just the number in %; leave the unit off.

Consider the following illustrative entries.
- compound: "CN1CCN(C(=O)c2ccc(CS(=O)(=O)c3c(Cl)cccc3Cl)o2)CC1"
  unit-abbrev: "%"
  numeric-value: 8.46
- compound: "CCOc1ccc(CCN2C(=O)C3C4C=CC(C4)C3C2=O)cc1OCC (stereo not given)"
  unit-abbrev: "%"
  numeric-value: 4.56
- compound: "COc1ccc(NC(=O)C2CCCN(S(=O)(=O)c3cccc4cccnc34)C2)cc1OC (stereo not given)"
  unit-abbrev: "%"
  numeric-value: -6.73
- compound: "Cc1onc(-c2ccccc2)c1C(=O)NCc1cccnc1"
  unit-abbrev: "%"
  numeric-value: 9.66
- compound: "c1ccc(C2(Cn3ccc4ccccc43)OCCO2)cc1"
  unit-abbrev: "%"
  numeric-value: 7.87

Look up differential viability (reversal) for this compound: CN1CCN(C(=O)C2CCN(S(=O)(=O)c3ccc4c(c3)oc(=O)n4C)CC2)CC1
14.3

Item under review: CN(C)C(=O)N1CCN(C(=O)c2ccco2)CC1 . Reported differential viability (reversal)?
6.83

====

// values below are reported viability
experiment: Her2 expression decrease, cell viability multiplex – SKBR3 breast tumor cells, AlphaScreen, ATP viability, primary screen (AID 461);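 note: percent of carrier control wells set as 100% viability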
cond: SKBR3 Her2 protein level, 18-24 h, measured here: SKBR3 viability, ATP luminescence, at 10 µM
Form entry: value (%) — number only.

Request the reported viability associated with CCCCOCCCNC(=O)c1ccc(NC(C)=O)cc1
108

# lookup: viability of COc1ccccc1CNC(=O)C1CCCN(S(=O)(=O)c2cccc3cccnc23)C1 (stereo not given)
92.5

What value of measured viability is listed for CC1CCc2nn(CC(=O)NCCN3CCCCC3C)cc2C1 (stereo not given) ?
85

Quick one: viability of Cc1ccc2oc(=O)c3cnn(CC(=O)N4CCCCC4C)c3c2c1 (stereo not given) ?
91.5

Name the reported viability value associated with the compound Cc1noc(C(=O)Nc2ccc3c(c2)OCO3)c1Cl
84.5

What does the data say about its viability? Entry: COc1ccc(N2CCN(C(c3ccccc3)c3sc4nc(C)nn4c3O)CC2)cc1 (stereo not given)
91.5

Consider the compound shown here: CCOC(=O)c1cc2c(=O)n3ccccc3nc2n(Cc2ccccc2)c1=N What is its recorded viability?
77

Which viability reading was recorded for the compound CCOC(=O)C(CC)(CCC(=O)O)c1csc(N)n1 (stereo not given) ?
99

Given the compound COc1cccc(-c2cc(C(F)(F)F)nc(NCc3ccco3)n2)c1 , what is its reported viability?
108

Which viability value belongs to Cn1c(C(=O)NCC2CCCO2)cc2c(=O)n(C)c3ccccc3c21 (stereo not given) ?
95

Need viability, item N#CCCN1CCN(S(=O)(=O)c2ccc(S(=O)(=O)NC3CCCCC3)cc2)CC1
103

====

experiment: S. cerevisiae growth inhibition in restrictive medium, OD615, pilot screen, restrictive growth control, yeast lifespan reduction project (AID 706);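 note: modified DeaD lifespan yeast strain shifted to restrictive glucose medium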
cond: OD615, 48 h, at 10 µM, stronger effect = higher value
# growth inhibition listing for each entry below
Could you give me the number in %? Just the number is fine.

Please review the entries below; each comes with its answer.
- compound: "O=C(NC1CC1)c1ccc(CSCc2cccc(F)c2)o1"
  growth inhibition (%): 3.37
- compound: "Cc1ccccc1Cn1cc(/C=N/n2cnnc2)c2ccccc21"
  growth inhibition (%): 23.3
- compound: "COc1ccc(N(CC(=O)O)S(=O)(=O)c2ccc(OC)c(OC)c2)cc1"
  growth inhibition (%): -11.2

// returns reported growth inhibition for input CCOC(=O)c1[nH]c(C)c(C(=O)Nc2ccc(Cl)cc2)c1C
2.55

Item under review: FC(F)(F)c1cc(-c2ccco2)nc(NCc2ccco2)n1 . Reported growth inhibition?
-11.4

What does the data say about its growth inhibition? Entry: CSc1ccccc1NC(=O)C1CCCO1 (configuration not stated)
-0.95

# input compound: COc1ccc(S(=O)(=O)N2CCN(C)CC2)c2ccccc12 ; wanted: its growth inhibition
-2.78

Find the recorded growth inhibition belonging to CCOC(=O)Cn1c(CCC(=O)O)ccc1-c1ccc(F)cc1 and report it.
-2.42

Sample Cc1ccc(S(=O)(=O)NCCOC(=O)Nc2sc(=S)n(C)c2C)cc1 — what was its growth inhibition?
23.1

Suppose we examine the compound CCOC(=O)Cn1nc(-c2ccc(Cl)cc2)cc1N ; what growth inhibition value has been reported?
2.33

Dear colleague, I am looking for the recorded growth inhibition of the following compound: CC(=O)C1C(c2ccc(Cl)cc2)NC(=O)NC1(O)C(F)(F)F (configuration not stated)
-12

Give the measured growth inhibition of CC1CN(Cc2nc3c(c(=O)n(C)c(=O)n3C)n2Cc2cccc(Cl)c2)CC(C)O1 (configuration not stated) .
-9

====

Measured RAM network inhibition by item
experiment: RAM signaling pathway blockade in yeast – S. cerevisiae, Pdr1DBD-CYC8 efflux-inhibited sensitized strain, primary screen (AID 1298);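 note: 0% = DMSO untreated cells without growth and 100% = 10 µM 1-NA-PP1 full growth; higher means more yeast growth rescued from 5-FOA killing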
cond: S. cerevisiae cbk1-as DSE1-URA3 strain, 5-FOA growth OD615, 2 d; at 50 µM; stronger effect = higher value
Note: unit % is implicit; provide only the numeric part.

- compound: "COCCNC(=O)CN1C(=O)CSc2ncccc21"
  numeric-value: 0.97
- compound: "COC(=O)/C=C/S(=O)(=O)c1ccc(NC(C)=O)cc1"
  numeric-value: 7.25
- compound: "Cn1cc(C2NC(=O)c3c(sc4c3CCCC4)N2)c2ccccc21 (stereo unspecified)"
  numeric-value: 2.82
- compound: "CNC(=O)c1ccccc1NC(=O)c1c(O)c2c([nH]c1=O)CCCC2"
  numeric-value: 3.36
- compound: "CCOC(=O)CC1C(=O)NCCN1C(=O)c1cc2c(=O)n3cccc(C)c3nc2s1 (stereo unspecified)"
  numeric-value: -1.37

Need RAM network inhibition, item CC(NC(=O)c1cc2c(=O)n(C)c3ccccc3c2n1C)c1ccc2c(c1)OCCO2 (stereo unspecified)
3.77

Look at this compound and give its reported RAM network inhibition. O=P(O)(CCc1ccccn1)CN1CCOCC1
1.09

Record request: RAM network inhibition value, item CCOC(=O)N1CCN(c2nc(=S)n(-c3ccccc3)c(C)c2C(C)=O)CC1
2.67

Quick one: RAM network inhibition for COc1ccc(C/C(N)=N/n2cnnc2)cc1Cl ?
2.47

Sample COc1ccc(CNC(=O)Cn2cc3c(n2)CCCCC3)cc1 — what was its RAM network inhibition?
-1.07

Name the reported RAM network inhibition value associated with the compound CCCOc1ccc(C2C(C(=O)OC)=CN(CCOC)C=C2C(=O)OC)cc1
5.46

====

experiment: MRP1 drug-resistance reversers in H69AR cells – cell-based, doxorubicin co-treatment, pilot screen (AID 601)
cond: H69AR cells + 2 uM doxorubicin, CellTiter-Glo, 72 h; at 10 µM; stronger effect = higher value
endpoint-name: differential viability (reversal) (%)
Give the number; % is assumed, so skip it.

Consider the following illustrative entries.
- compound: "Cc1cccc(-n2nc3c(c2NC(=O)CCC2CCCCC2)CS(=O)C3)c1C (stereo unspecified)"
  numeric-value: 1.55
- compound: "COc1ccc(S(=O)(=O)N(CC(=O)N2CCN(c3ccccc3OC)CC2)c2ccccc2)cc1"
  numeric-value: -8.61
- compound: "O=C(O)C1CCCN(S(=O)(=O)c2ccc(Cl)s2)C1 (stereo unspecified)"
  numeric-value: 4.47
- compound: "COc1ccc(N(C)C(=O)CCS(=O)(=O)c2cccc3nonc23)cc1"
  numeric-value: 14.5

I am curious: what differential viability (reversal) value has been reported for CCCOc1ccc2ccccc2c1/C=N/n1cnnc1 ?
3.08

Give its differential viability (reversal) value. Item: CCN(CC)c1ccc(NC(=O)c2nc3nc(C)cc(C(F)F)n3n2)cc1
6.97

Report differential viability (reversal) for Cn1c(Cc2ccccc2)nnc1SCC(=O)NC1CCCCC1 please.
12.9

Requested read-out: differential viability (reversal). Entry: O=C(Nc1ccc(Cl)cn1)c1cccnc1
-17.4

Given CCOC(=O)N1CCC(N2C(=O)c3ccccc3C2Nc2ccccc2C)CC1 (stereo unspecified) , state its recorded differential viability (reversal).
32

Name the reported differential viability (reversal) value associated with the compound COc1ccc(NS(=O)(=O)c2ccc(NC(C)=O)cc2)cc1OC
4.97

Requested read-out: differential viability (reversal). Entry: Cc1noc(/C=C/N(C)C)c1S(=O)(=O)N1CCCC(C(=O)N2CCc3ccccc32)C1 (stereo unspecified)
-5.5
